Assay details: viability loss in pontine glioma line – cell-based, SU-DIPG-IV, MIPE4.0, CellTiter-Glo, qHTS, dose response (AID 1347063);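 also: compound exposure lasted 48 hours before the viability readout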
Measurement conditions: CellTiter-Glo ATP luminescence
Results filed as inconclusive are left out. Active and inactive are the calls of the source. The limit is not given here; nearly all actives have AC50 up to about 30 µM.
Outcomes: YES (active), NO (inactive)

1. O=C(O)C(O)Cc1ccc(O)c(O)c1 (centres undefined) ... NO
2. CNC(=O)c1cccc(-c2ccc3c(N4CCOC[C@@H]4C)nc(N4CCOC[C@@H]4C)nc3n2)c1 ... YES
3. Cc1cc(Nc2cc(N3CCN(C)CC3)nc(Sc3ccc(NC(=O)C4CC4)cc3)n2)n[nH]1 ... YES
4. CCOC(=O)[C@@H](N)CCC(=O)N[C@@H](CSCc1ccccc1)C(=O)N[C@@H](C(=O)OCC)c1ccccc1 ... NO
5. O=C(NCc1ccccc1)c1csc(Nc2ccncn2)n1 ... YES
6. CN(C)Cc1c(C(=O)NCCOc2ccc(C(=O)NO)cc2)oc2ccccc12 ... YES
7. CN(C)C[C@@H]1CCn2cc(c3ccccc32)C2=C(C(=O)NC2=O)c2cn(c3ccccc23)CCO1 ... YES
8. Cc1ccc(S(=O)(=O)OCC(=O)Nc2ccc(C(=O)O)c(O)c2)cc1 ... NO
9. Cc1nnc(C(C)C)n1C1C[C@H]2CC[C@@H](C1)N2CC[C@H](NC(=O)C1CCC(F)(F)CC1)c1ccccc1 (some centres undefined) ... NO
10. Cc1ccc2nc(NCCN)c3ncc(C)n3c2c1 ... YES
11. CCOC(=O)N1CCN(/[N+]([O-])=N/Oc2ccc([N+](=O)[O-])cc2[N+](=O)[O-])CC1 ... YES
12. CCN(CC)CCCCNc1ncc2c(n1)N(C)C(=O)N(c1c(Cl)c(OC)cc(OC)c1Cl)C2 ... YES
13. Cn1c(=O)n(-c2ccc(C(C)(C)C#N)cc2)c2c3cc(-c4cnc5ccccc5c4)ccc3ncc21 ... YES
14. CC(C)c1nn(-c2c(Cl)cccc2Cl)c2nc(Cc3ccc(OCCO)cc3)[nH]c(=O)c12 ... YES
15. CC(C)OC(=O)C1=CN(C(=O)c2ccc(F)c(F)c2)CC(C)(C)c2c1[nH]c1ccccc21 ... YES
16. CC[C@H](NC(=O)[C@H](C)NC)C(=O)N1C[C@@H](O)C[C@H]1Cc1c(-c2[nH]c3cc(F)ccc3c2C[C@@H]2C[C@H](O)CN2C(=O)[C@H](CC)NC(=O)[C@H](C)NC)[nH]c2cc(F)ccc12 ... YES
17. COc1c(C)cnc(Cn2cnc3c(Cl)nc(N)nc32)c1C ... YES
18. C=CC(=O)Nc1cccc(Oc2nc(Nc3ccc(N4CCN(C)CC4)cc3OC)ncc2Cl)c1 ... YES
19. OCCn1cc(-c2ccc3c(c2)CC/C3=N\O)c(-c2ccncc2)n1 ... NO
